protocol.summary: Ionisation constant (pKa)
Type: physicochemical

smiles.repr: Cc1cnc(NCC2(c3ccccc3)CCC2)c(=O)n1CC(=O)NCc1ccc2c(N)noc2c1
pKa: 8.6
//
smiles.repr: Cc1cnc(NCC(F)(F)c2ccccc2)c(=O)n1CC(=O)NCc1ccc2c(N)noc2c1
pKa: 8.6
//
smiles.repr: Cc1cnc(NCCc2ccccc2)c(=O)n1CC(=O)NCc1ccc2[nH]nc(O)c2c1
pKa: 6.3
//
smiles.repr: Cc1cnc(NCCc2ccccc2)c(=O)n1CC(=O)NCc1ccc2[nH]cnc2c1
pKa: 5.8
//
smiles.repr: Cc1cnc(NCCc2ccc(F)cc2)c(=O)n1CC(=O)NCc1ccc2c(N)noc2c1
pKa: 8.6
//
smiles.repr: Cc1ccc(NS(=O)(=O)Cc2ccc(Br)cc2)c(=O)n1CC(=O)NCc1ccc2c(N)noc2c1
pKa: 8.6
//
smiles.repr: Cc1cnc(NCC2(c3ccccc3)CCC2)c(=O)n1CC(=O)NCc1ccc2[nH]nc(O)c2c1
pKa: 6.3
